# System: NCI-H1993
# ASSAY PROTOCOL: relative viability (nuclei count vs DMSO), 5 days (fraction); higher = more cells survive
# TEST SETTINGS: first compound 1.265 µM
REPORTED METRIC: relative viability
The response must contain the number and no unit.

MOLECULE	relative viability
O=C(O)c1ccc(-c2c[nH]c3ncc(-c4ccccc4)cc23)cc1C1CCCC1 + CC(=O)Nc1cccc(-n2c(=O)n(C3CC3)c(=O)c3c(Nc4ccc(I)cc4F)n(C)c(=O)c(C)c32)c1 [Trametinib] (partner 0.02 µM)	0.575
O=C(O)c1ccc(-c2c[nH]c3ncc(-c4ccccc4)cc23)cc1C1CCCC1 + CCNC(=O)c1noc(-c2cc(C(C)C)c(O)cc2O)c1-c1ccc(CN2CCOCC2)cc1 [Luminespib] (partner 0.01 µM)	0.612
O=C(O)c1ccc(-c2c[nH]c3ncc(-c4ccccc4)cc23)cc1C1CCCC1 + CC(=O)c1c(C)c2cnc(Nc3ccc(N4CCNCC4)cn3)nc2n(C2CCCC2)c1=O [Palbociclib] (partner 0.5 µM)	0.537
O=C(O)c1ccc(-c2c[nH]c3ncc(-c4ccccc4)cc23)cc1C1CCCC1 + Cc1nc(NC(=O)N2CCC[C@H]2C(N)=O)sc1-c1ccnc(C(C)(C)C(F)(F)F)c1 [Alpelisib] (partner 2 µM)	0.594
O=C(O)c1ccc(-c2c[nH]c3ncc(-c4ccccc4)cc23)cc1C1CCCC1 + O=C(CCCCCCC(=O)Nc1ccccc1)NO [Vorinostat] (partner 1 µM)	0.311

Provide value of relative viability for this record tested with NCI-H1993: O=C(O)c1ccc(-c2c[nH]c3ncc(-c4ccccc4)cc23)cc1C1CCCC1 + CS(=O)(=O)N1CCN(Cc2cc3nc(-c4cccc5[nH]ncc45)nc(N4CCOCC4)c3s2)CC1 [Pictilisib] (partner 1 µM)
0.789

Try this molecule next: O=C(O)c1ccc(-c2c[nH]c3ncc(-c4ccccc4)cc23)cc1C1CCCC1 + Nc1nc2[nH]cc(CCc3ccc(C(=O)N[C@@H](CCC(=O)O)C(=O)O)cc3)c2c(=O)[nH]1 [Pemetrexed] (partner 0.2 µM)
0.59

Input O=C(O)c1ccc(-c2c[nH]c3ncc(-c4ccccc4)cc23)cc1C1CCCC1 + C[C@]1(O)C[C@@H](c2nc(-c3ccc4ccc(-c5ccccc5)nc4c3)c3c(N)nccn32)C1 [Linsitinib] (partner 1 µM)
0.753

###

Reported relative viability values follow for various compounds
# Tested on: NCI-H2085
# ASSAY PROTOCOL: relative viability (nuclei count vs DMSO), 5 days (fraction); higher = more cells survive
# TEST SETTINGS: first compound 0.01 µM
Answer field: number only, no words.

Please review the following examples before continuing.
COMPOUND	relative viability
NC(=O)Nc1cc(-c2cccc(F)c2)sc1C(=O)N[C@H]1CCCNC1 [AZD7762] + CC1(C)CCC(c2ccc(Cl)cc2)=C(CN2CCN(c3ccc(C(=O)NS(=O)(=O)c4ccc(N[C@H](CCN5CCOCC5)CSc5ccccc5)c(S(=O)(=O)C(F)(F)F)c4)cc3)CC2)C1 [Navitoclax] (partner 0.5 µM)	1.27
NC(=O)Nc1cc(-c2cccc(F)c2)sc1C(=O)N[C@H]1CCCNC1 [AZD7762] + Cc1nc(Nc2ncc(C(=O)Nc3c(C)cccc3Cl)s2)cc(N2CCN(CCO)CC2)n1 [Dasatinib] (partner 0.075 µM)	0.247
NC(=O)Nc1cc(-c2cccc(F)c2)sc1C(=O)N[C@H]1CCCNC1 [AZD7762] + COc1cccc2cc(-c3nc([C@H]4CC[C@H](C(=O)O)CC4)n4ncnc(N)c34)[nH]c12 [OSI-027] (partner 0.5 µM)	0.603

// returns reported relative viability for input NC(=O)Nc1cc(-c2cccc(F)c2)sc1C(=O)N[C@H]1CCCNC1 [AZD7762] + Nc1nc2[nH]cc(CCc3ccc(C(=O)N[C@@H](CCC(=O)O)C(=O)O)cc3)c2c(=O)[nH]1 [Pemetrexed] (partner 0.2 µM)
0.932

Now consider NC(=O)Nc1cc(-c2cccc(F)c2)sc1C(=O)N[C@H]1CCCNC1 [AZD7762] + CCNC(=O)c1noc(-c2cc(C(C)C)c(O)cc2O)c1-c1ccc(CN2CCOCC2)cc1 [Luminespib] (partner 0.01 µM) and answer again.
0.47

Another compound: NC(=O)Nc1cc(-c2cccc(F)c2)sc1C(=O)N[C@H]1CCCNC1 [AZD7762] + O=C(c1cc(Cc2n[nH]c(=O)c3ccccc23)ccc1F)N1CCN(C(=O)C2CC2)CC1 [Olaparib] (partner 8 µM)
0.872

Please answer likewise for NC(=O)Nc1cc(-c2cccc(F)c2)sc1C(=O)N[C@H]1CCCNC1 [AZD7762] + C[C@]1(O)C[C@@H](c2nc(-c3ccc4ccc(-c5ccccc5)nc4c3)c3c(N)nccn32)C1 [Linsitinib] (partner 1 µM)
1.03

Again, but for NC(=O)Nc1cc(-c2cccc(F)c2)sc1C(=O)N[C@H]1CCCNC1 [AZD7762] + Nc1ncn([C@H]2C[C@H](O)[C@@H](CO)O2)c(=O)n1 [Decitabine] (partner 2 µM)
0.602

###

Listed here are compounds together with their documented relative viability.
# Tested on: A-427
# ASSAY PROTOCOL: relative viability (nuclei count vs DMSO), 5 days (fraction); higher = more cells survive
# TEST SETTINGS: first compound 0.01581 µM
Give your answer as a number; write no unit.

COMPOUND	ASSAY VALUE
CC1(C)CCC(c2ccc(Cl)cc2)=C(CN2CCN(c3ccc(C(=O)NS(=O)(=O)c4ccc(N[C@H](CCN5CCOCC5)CSc5ccccc5)c(S(=O)(=O)C(F)(F)F)c4)cc3)CC2)C1 [Navitoclax] + CCNC(=O)c1noc(-c2cc(C(C)C)c(O)cc2O)c1-c1ccc(CN2CCOCC2)cc1 [Luminespib] (partner 0.01 µM)	0.833
CC1(C)CCC(c2ccc(Cl)cc2)=C(CN2CCN(c3ccc(C(=O)NS(=O)(=O)c4ccc(N[C@H](CCN5CCOCC5)CSc5ccccc5)c(S(=O)(=O)C(F)(F)F)c4)cc3)CC2)C1 [Navitoclax] + COc1cccc2cc(-c3nc([C@H]4CC[C@H](C(=O)O)CC4)n4ncnc(N)c34)[nH]c12 [OSI-027] (partner 0.5 µM)	0.525
CC1(C)CCC(c2ccc(Cl)cc2)=C(CN2CCN(c3ccc(C(=O)NS(=O)(=O)c4ccc(N[C@H](CCN5CCOCC5)CSc5ccccc5)c(S(=O)(=O)C(F)(F)F)c4)cc3)CC2)C1 [Navitoclax] + Nc1ncn([C@H]2C[C@H](O)[C@@H](CO)O2)c(=O)n1 [Decitabine] (partner 2 µM)	0.534

Note: attention shifts to another entry.
GET /values?readout=relative viability&item= CC1(C)CCC(c2ccc(Cl)cc2)=C(CN2CCN(c3ccc(C(=O)NS(=O)(=O)c4ccc(N[C@H](CCN5CCOCC5)CSc5ccccc5)c(S(=O)(=O)C(F)(F)F)c4)cc3)CC2)C1 [Navitoclax] + CS(=O)(=O)CCNCc1ccc(-c2ccc3ncnc(Nc4ccc(OCc5cccc(F)c5)c(Cl)c4)c3c2)o1 [Lapatinib] (partner 2 µM)
0.956

###

# System: NCI-H2126
# ASSAY PROTOCOL: relative viability (nuclei count vs DMSO), 5 days (fraction); higher = more cells survive
# TEST SETTINGS: first compound 0.005 µM
Item-by-item account of relative viability
Answer using only a numeral; do not append any unit.

COMPOUND	ASSAY VALUE
CC1(C)CCC(c2ccc(Cl)cc2)=C(CN2CCN(c3ccc(C(=O)NS(=O)(=O)c4ccc(N[C@H](CCN5CCOCC5)CSc5ccccc5)c(S(=O)(=O)C(F)(F)F)c4)cc3)CC2)C1 [Navitoclax] + CC(C)C[C@H](NC(=O)[C@H](Cc1ccccc1)NC(=O)c1cnccn1)B(O)O [Bortezomib] (partner 0.002 µM)	1.08
CC1(C)CCC(c2ccc(Cl)cc2)=C(CN2CCN(c3ccc(C(=O)NS(=O)(=O)c4ccc(N[C@H](CCN5CCOCC5)CSc5ccccc5)c(S(=O)(=O)C(F)(F)F)c4)cc3)CC2)C1 [Navitoclax] + C[C@]1(O)C[C@@H](c2nc(-c3ccc4ccc(-c5ccccc5)nc4c3)c3c(N)nccn32)C1 [Linsitinib] (partner 1 µM)	0.708

Quick check: relative viability of CC1(C)CCC(c2ccc(Cl)cc2)=C(CN2CCN(c3ccc(C(=O)NS(=O)(=O)c4ccc(N[C@H](CCN5CCOCC5)CSc5ccccc5)c(S(=O)(=O)C(F)(F)F)c4)cc3)CC2)C1 [Navitoclax] + CCNC(=O)c1noc(-c2cc(C(C)C)c(O)cc2O)c1-c1ccc(CN2CCOCC2)cc1 [Luminespib] (partner 0.01 µM) ?
0.906

###

# Test system: IA-LM
# ASSAY PROTOCOL: relative viability (nuclei count vs DMSO), 5 days (fraction); higher = more cells survive
# TEST SETTINGS: first compound 0.253 µM
REPORTED METRIC: relative viability
Provide a numeric answer; units are not to be included.

COMPOUND	ASSAYED SYSTEM	relative viability
Oc1nc(-c2ccc(C(F)(F)F)cc2)nc2c1CSCC2 [XAV939] + O=C(CCCCCCC(=O)Nc1ccccc1)NO [Vorinostat] (partner 1 µM)	IA-LM	0.664

From here, focus on the item given below.
Could you share what relative viability was measured for Oc1nc(-c2ccc(C(F)(F)F)cc2)nc2c1CSCC2 [XAV939] + CC1(C)CCC(c2ccc(Cl)cc2)=C(CN2CCN(c3ccc(C(=O)NS(=O)(=O)c4ccc(N[C@H](CCN5CCOCC5)CSc5ccccc5)c(S(=O)(=O)C(F)(F)F)c4)cc3)CC2)C1 [Navitoclax] (partner 0.5 µM) , tested on IA-LM?
0.698
